Study system: Gonadotropin-releasing hormone receptor (Rattus norvegicus) (UniProt P30969)
Sequence (P30969 whole entry): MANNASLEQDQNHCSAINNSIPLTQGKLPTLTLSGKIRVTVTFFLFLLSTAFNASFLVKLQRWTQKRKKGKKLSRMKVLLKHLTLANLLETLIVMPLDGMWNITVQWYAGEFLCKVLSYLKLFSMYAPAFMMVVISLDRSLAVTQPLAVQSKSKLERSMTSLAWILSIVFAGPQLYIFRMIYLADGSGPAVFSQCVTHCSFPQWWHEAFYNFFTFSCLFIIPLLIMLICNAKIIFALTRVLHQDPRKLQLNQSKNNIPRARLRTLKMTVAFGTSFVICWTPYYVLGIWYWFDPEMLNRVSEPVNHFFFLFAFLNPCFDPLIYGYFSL
Experimental protocol: Antiovulatory activity on diestrus II following administration as a solution in corn oil (24h earlier) in rat.
Type: functional, organism-based
Property: ED50 (ug injection-1)
Answers are plain numbers.

Task: // ED50 (ug injection-1) lookup, key: `CCCNC(=NCCCC[C@@H](NC(=O)[C@H](Cc1ccc(O)cc1)NC(=O)[C@H](CO)NC(=O)[C@@H](Cc1c[nH]c2ccccc12)NC(=O)[C@@H](Cc1ccc(F)cc1)NC(=O)[C@@H](Cc1ccc2ccccc2c1)NC(C)=O)C(=O)N[C@@H](CC(C)C)C(=O)N[C@@H](CCCN=C(N)N)C(=O)N1CCC[C@H]1C(=O)NCC(N)=O)NCCC`
Output: 12

###

Study system: Gonadotropin-releasing hormone receptor (Rattus norvegicus)
Experimental protocol: Antiovulatory activity on proestrus was measured by administering as a solution in 50% propylene glycol / 0.9% saline in rat
Format: functional
Square brackets hold non-standard residues; d marks the D form. Peptide text beside a SMILES is read from it. dPhe(4-F) = N[C@H](Cc1ccc(F)cc1)C(=O)O; d2Nal = N[C@H](Cc1ccc2ccccc2c1)C(=O)O
Consider the following molecules; for each one, report its ED50 (ug injection-1).

Use the examples below as a reference point.
Molecule	Study system	ED50 (ug injection-1)
CCNC(=NCCCC[C@H](NC(=O)[C@H](CO)NC(=O)[C@@H](Cc1c[nH]c2ccccc12)NC(=O)[C@@H](Cc1ccc(Cl)cc1)NC(=O)[C@@H](CCCCN=C(NCC)NCC)NC(C)=O)C(=O)N[C@H](Cc1ccc(O)cc1)C(=O)N[C@@H](Cc1c[nH]c2ccccc12)C(=O)N[C@@H](CCCN=C(N)N)C(=O)N1CCC[C@H]1C(=O)N[C@H](C)C(N)=O)NCC	Gonadotropin-releasing hormone receptor (Rattus norvegicus)	> 16
CCNC(=NCCCC[C@@H](NC(=O)[C@H](Cc1ccc(O)cc1)NC(=O)[C@H](CO)NC(=O)[C@@H](Cc1c[nH]c2ccccc12)NC(=O)[C@@H](Cc1ccc(Cl)cc1)NC(=O)[C@@H](Cc1ccc(Cl)cc1)NC(C)=O)C(=O)N[C@@H](CC(C)C)C(=O)NC(CCCN=C(N)N)C(=O)N1CCC[C@H]1C(=O)N[C@H](C)C(N)=O)NCC (some centres undefined)	Gonadotropin-releasing hormone receptor (Rattus norvegicus)	1.7

// for each molecule in input: emit ED50 (ug injection-1)
1. CCNC(=O)[C@@H]1CCCN1C(=O)[C@H](CCCN=C(N)N)NC(=O)[C@H](CC(C)C)NC(=O)[C@@H](CCCCN=C(NCC)NCC)NC(=O)[C@H](Cc1ccc(O)cc1)NC(=O)[C@H](CO)NC(=O)[C@@H](Cc1c[nH]c2ccccc12)NC(=O)[C@@H](Cc1ccc(Cl)cc1)NC(=O)[C@@H](Cc1ccc2ccccc2c1)NC(C)=O
2. CC(=O)N[C@H](Cc1ccc2ccccc2c1)C(=O)N[C@H](Cc1ccc(F)cc1)C(=O)N[C@H](Cc1c[nH]c2ccccc12)C(=O)N[C@@H](CO)C(=O)N[C@@H](Cc1ccc(O)cc1)C(=O)N[C@H](CCCN=C(N)N)C(=O)N[C@@H](CC(C)C)C(=O)N[C@@H](CCCN=C(N)N)C(=O)N1CCC[C@H]1C(=O)NCC(N)=O (Ac-[d2Nal][dPhe(4-F)][dW]SY[dR]LRPG-NH2)

Output:
[2.4, 2.4]
